Tested on: Plasmodium falciparum Sir2 (PF13_0152, Sir2A)
protocol.notes: pfSir2 binders on small-molecule microarrays, primary screen, biochemical, small-molecule microarray, 635 nm fluorescence (AID 1098);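 note: score merges spot fluorescence intensity with its signal-to-noise ratio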
run.parameters: small-molecule microarray binding, fluorescence 635 nm; higher = more signal
Catalogue of compounds with associated composite z-score
measure.name: composite z-score

[[record]]
compound = "C=CCOC(=O)[C@H]1[C@@H]2C(=O)O[C@@H](c3ccccc3)[C@@H](c3ccccc3)N2[C@@H](c2ccc(OCCOC(=O)[C@H]3C[C@H]4C(=O)N[C@@H](Cc5ccccc5)C(=O)N4[C@H]3c3cccc(OCCO)c3)cc2)[C@]12C(=O)Nc1ccc(I)cc12"
experimental_target = "Plasmodium falciparum Sir2 (PF13_0152, Sir2A)"
recorded_number = 1.12

[[record]]
compound = "CC=CC(O)C1C=CC2C(=O)N(c3ccccc3)C(=O)C2N1Nc1ccccc1 (configuration not stated)"
experimental_target = "Plasmodium falciparum Sir2 (PF13_0152, Sir2A)"
recorded_number = 1.37

[[record]]
compound = "NC(=O)NCC#Cc1ccc2c(c1)[C@]1(C(=O)N2)[C@H](c2ccc(O)cc2)N2[C@H](c3ccccc3)[C@H](c3ccccc3)OC(=O)[C@H]2[C@@H]1C(=O)Nc1nc2ccccc2s1"
experimental_target = "Plasmodium falciparum Sir2 (PF13_0152, Sir2A)"
recorded_number = 0.836

[[record]]
compound = "Cc1c(NC(=O)/C(C#N)=C/C=C/c2ccccc2[N+](=O)[O-])c(=O)n(-c2ccccc2)n1C"
experimental_target = "Plasmodium falciparum Sir2 (PF13_0152, Sir2A)"
recorded_number = 1.03

[[record]]
compound = "C=C[C@@H](C)[C@H](OC(=O)Nc1ccc(SC)cc1)c1ccc(OCCO)cc1"
experimental_target = "Plasmodium falciparum Sir2 (PF13_0152, Sir2A)"
recorded_number = -0.435

[[record]]
compound = "C[N+](C)(C)CCCC[C@@H]1NC(=O)[C@@H]2C[C@H](C(=O)O)[C@H](c3ccc(O)cc3)N2C1=O"
experimental_target = "Plasmodium falciparum Sir2 (PF13_0152, Sir2A)"
recorded_number = -0.72

[[record]]
compound = "C=CCN1C(=O)[C@@]2(CCC(=O)OC(C)(C)C)N=C(c3ccc(OCCCO)cc3)O[C@H]2c2ccccc21"
experimental_target = "Plasmodium falciparum Sir2 (PF13_0152, Sir2A)"
recorded_number = 1.25


====

experimental.target: Homeobox protein Hox-A13 (Mus musculus)
protocol.notes: inhibitors of HoxA13-DNA binding, primary screen, biochemical, fluorescence polarization, labeled oligonucleotide (AID 1185)
run.parameters: 15 min, higher = more signal, called active from +8 up or from −8 down
Class definitions on z-score: lower level (below -4), middle level (-4 to below -2), upper level (-2 or more)

[[record]]
compound = "CCOC(=CC(=O)OC)CC(O)c1cccc(Cl)c1 (stereo not given)"
experimental_target = "Homeobox protein Hox-A13 (Mus musculus)"
class = "middle level"

[[record]]
compound = "COc1cc(OC)c(C(O)C2C=CC3C(=O)N(c4ccccc4)C(=O)C3N2Nc2ccc(C#N)cc2)cc1Br (stereo not given)"
experimental_target = "Homeobox protein Hox-A13 (Mus musculus)"
class = "middle level"

[[record]]
compound = "[N-]=[N+]=NCc1ccccc1C[C@]1(C(=O)NCC(O)CO)N=C(c2ccc(OCCCO)cc2)O[C@H]1c1ccccc1CN=[N+]=[N-] (stereo not given in full)"
experimental_target = "Homeobox protein Hox-A13 (Mus musculus)"
class = "upper level"

[[record]]
compound = "CC(C)N1CC=CC23O[C@@H]4C=CCCOC(=O)C4[C@H]2C(=O)N(CCO)[C@@H]3C1=O (stereo not given in full)"
experimental_target = "Homeobox protein Hox-A13 (Mus musculus)"
class = "lower level"

[[record]]
compound = "C=C(/C(=C/C[C@@H](OC(=O)c1ccncc1)c1ccc(OCCO)cc1)c1cc(C(=O)OC)ccc1OC)C(C)C"
experimental_target = "Homeobox protein Hox-A13 (Mus musculus)"
class = "middle level"

[[record]]
compound = "COc1ccc([Si](C)(C)[C@H]2[C@H](CCn3cc(CCO)nn3)O[C@@]3(C(=O)N(Cc4ccc(N5C(=O)c6cccc7cccc5c67)cc4)c4ccccc43)[C@@H]2C)cc1"
experimental_target = "Homeobox protein Hox-A13 (Mus musculus)"
class = "middle level"

[[record]]
compound = "COc1ccc(NN2C(C(O)c3ccco3)C=CC3C(=O)N(C4CCCCC4)C(=O)C32)cc1 (stereo not given)"
experimental_target = "Homeobox protein Hox-A13 (Mus musculus)"
class = "middle level"

[[record]]
compound = "NC(=O)NCC#Cc1ccc2c(c1)[C@]1(C(=O)N2)[C@H](C(=O)O)[C@H]2C(=O)O[C@H](c3ccccc3)[C@H](c3ccccc3)N2[C@@H]1c1ccccc1OCCO"
experimental_target = "Homeobox protein Hox-A13 (Mus musculus)"
class = "lower level"

[[record]]
compound = "C=CCOC(=O)[C@H]1[C@@H]2C(=O)O[C@@H](c3ccccc3)[C@@H](c3ccccc3)N2[C@@H](c2ccc(OCCOC(=O)[C@H]3C[C@H]4C(=O)N[C@@H](CCCC[N+](C)(C)C)C(=O)N4[C@H]3c3cccc(OCCO)c3)cc2)[C@]12C(=O)Nc1ccc(I)cc12"
experimental_target = "Homeobox protein Hox-A13 (Mus musculus)"
class = "upper level"

[[record]]
compound = "O=C1c2ccccc2[C@@]2(Cc3ccccc3N(C3CC3)C2=O)[C@H](c2ccc(CO)cc2)N1C1CCCCC1"
experimental_target = "Homeobox protein Hox-A13 (Mus musculus)"
class = "middle level"

[[record]]
compound = "CCOC(=O)C[C@H]1[C@H](OC(=O)c2ccc(-c3ccccc3)cc2)[C@@H](NC(=O)c2ccc3ccccc3c2)c2cc(OCCCO)ccc2N1C(=O)c1ccc2ccccc2n1"
experimental_target = "Homeobox protein Hox-A13 (Mus musculus)"
class = "upper level"

[[record]]
compound = "COc1cc(CO)cc(I)c1O[C@H]1C=C(C(=O)NCCO)C[C@@H](NCc2ccccc2F)[C@@H]1O"
experimental_target = "Homeobox protein Hox-A13 (Mus musculus)"
class = "lower level"

[[record]]
compound = "C=C(COC)/C(=C/C[C@@H](OC(=O)c1ccncc1)c1ccc(OCCO)cc1)c1cnc2ccccc2c1"
experimental_target = "Homeobox protein Hox-A13 (Mus musculus)"
class = "lower level"

[[record]]
compound = "COC(=O)c1c(CC[C@@H](CO)NC(=O)N[C@H](Cn2cc(-c3ccccc3C)nn2)C(C)C)oc(C(C)=O)c1C(=O)OC"
experimental_target = "Homeobox protein Hox-A13 (Mus musculus)"
class = "upper level"

[[record]]
compound = "Cc1ccc(C(C)CC(O)C2C=CC3C(=O)N(c4ccccc4)C(=O)C3N2Nc2ccc(C(C)C)cc2)o1 (stereo not given)"
experimental_target = "Homeobox protein Hox-A13 (Mus musculus)"
class = "middle level"

[[record]]
compound = "CC(=O)N1Cc2ccccc2C[C@]2(N=C(c3ccc(OCCCO)cc3)O[C@@H]2c2ccccc2)C1=O"
experimental_target = "Homeobox protein Hox-A13 (Mus musculus)"
class = "lower level"

[[record]]
compound = "C=CC[C@@H](OC(=O)Nc1ccc(OC)cc1)c1ccc(OCCO)cc1"
experimental_target = "Homeobox protein Hox-A13 (Mus musculus)"
class = "lower level"

[[record]]
compound = "COc1ccc([Si](C)(C)[C@@H]2[C@@H](CCO)O[C@]3(C(=O)N(Cc4cccc(N5C(=O)c6ccccc6Oc6ccccc65)c4)c4ccccc43)[C@H]2C)cc1"
experimental_target = "Homeobox protein Hox-A13 (Mus musculus)"
class = "upper level"

[[record]]
compound = "[N-]=[N+]=Nc1ccccc1C[C@@]1(C(=O)O)N=C(c2ccc(OCCCO)cc2)O[C@@H]1c1ccccc1"
experimental_target = "Homeobox protein Hox-A13 (Mus musculus)"
class = "lower level"

[[record]]
compound = "CCOC(=O)C1=CC[C@@H](c2ccc([N+](=O)[O-])cc2)N(S(=O)(=O)c2ccc(C)cc2)[C@H]1c1ccccc1"
experimental_target = "Homeobox protein Hox-A13 (Mus musculus)"
class = "upper level"

